Ref: patent US20250145585A1

Measured IC50, listed per entry for reference.
- Target or system: IGF-1R (Homo sapiens)
- Construct: expressed in transfected cells
- Assay summary: Example B-2: IGF-1R Assay (PathHunter cell lines, EC80 agonist challenge, chemiluminescent detection)
- Format: cell-based
- Run parameters: PathHunter cells, compound 60 minutes at 37° C., EC80 agonist 3 hours; read-out: IC50, Biological Activity against IGF-1R (Table B2)

Compound | Target or system | IC50
CC1(C)C(=O)N(c2ccc(S(C)(=O)=O)cc2)C(=O)N1Cc1ccnc2c1CC(=O)N2 [Compound 62] | IGF-1R (Homo sapiens) | > 10000 nM
CCOC(=O)N1C(=O)Cc2c(CN3C(=O)N(c4ccc(C5(C(F)(F)F)CC5)cc4)C(=O)C3(C)C)ccnc21 [Compound 78] | IGF-1R (Homo sapiens) | ≤ 500 nM
CC(Nc1cc(CN2C(=O)N(c3ccc4c(c3)N(S(C)(=O)=O)CC43CCC3)C(=O)C2(C)C)ccn1)C1CCOC1 (stereo not shown) [Compound 225] | IGF-1R (Homo sapiens) | ≤ 500 nM
CC1(C)COc2cc(N3C(=O)N(Cc4ccnc(N[C@H]5[C@@H]6COC[C@@H]65)c4)C(C)(C)C3=O)ccc21 [Compound 229] | IGF-1R (Homo sapiens) | ≤ 500 nM

---

- Target or system: IGF-1R (Homo sapiens)
- Construct: expressed in transfected cells
- Assay summary: Example B-1: IGF-1R Assay (PC3 cells stimulated with IGF1, AlphaLISA on cell lysates)
- Type: cell-based
- Run parameters: compound two hours, IGF1 200 ng/mL for 30 min, read-out: IC50, Biological Activity against IGF-1R (Table B1)
pIC50: −log10 of the molar value.
Assay endpoint: pIC50

Compound | Result
CC(C)Nc1cc(CN2C(=O)N(c3ccc(SC(F)(F)F)cc3)C(=O)C2(C)C)cnn1 [Compound 386] | 5.00 to 5.70
CC(C)Nc1cc(CN2C(=O)N(c3ccc(C(C)(C)C)cn3)C(=O)C2(C)C)ccn1 [Compound 277] | ≥ 6.30
COC1(c2ccc(N3C(=O)N(Cc4ccnc(NC(C)C)c4)C(C)(C)C3=O)cc2)CC1 [Compound 104] | ≥ 6.30
CC1(C)C(=O)N(c2ccc(S(=O)(=O)C(F)(F)F)cc2)C(=O)N1Cc1ccnc2[nH]ccc12 [Compound 22] | ≥ 6.30
CC1(Nc2cc(CN3C(=O)N(c4ccc(C(C)(C)C)cc4)C(=O)C3(C)C)ccn2)CC1 [Compound 273] | ≥ 6.30
CC1(C)C(=O)N(c2ccc([S+]([O-])C(F)(F)F)cc2)C(=O)N1Cc1ccnc(N)c1 (stereo not shown) [Compound 393] | ≥ 6.30
CC(C)Nc1cc(CN2C(=O)N(c3ccc(C(C)(C)C)nc3)C(=O)C2(C)C)ccn1 [Compound 267] | ≥ 6.30
CC1(C)C(=O)N(c2ccc(C3(C(F)(F)F)CC3)cc2)C(=O)N1Cc1ccnc2c1OCCN2 [Compound 17] | ≥ 6.30
CC1(C)C(=O)N(c2ccc(SC(F)(F)F)cc2)C(=O)N1Cc1ccnc(NC(=O)Nc2ccc(C#N)cc2)c1 [Compound 376] | ≥ 6.30
CC(C)(O)c1ccc(N2C(=O)N(Cc3ccnc(N)c3)C(C)(C)C2=O)cc1 [Compound 88] | 5.70 to 6.30

---

- Target or system: IGF-1R (Homo sapiens, UniProt P08069)
- Construct: expressed in transfected cells
- Sequence (P08069 31-1367): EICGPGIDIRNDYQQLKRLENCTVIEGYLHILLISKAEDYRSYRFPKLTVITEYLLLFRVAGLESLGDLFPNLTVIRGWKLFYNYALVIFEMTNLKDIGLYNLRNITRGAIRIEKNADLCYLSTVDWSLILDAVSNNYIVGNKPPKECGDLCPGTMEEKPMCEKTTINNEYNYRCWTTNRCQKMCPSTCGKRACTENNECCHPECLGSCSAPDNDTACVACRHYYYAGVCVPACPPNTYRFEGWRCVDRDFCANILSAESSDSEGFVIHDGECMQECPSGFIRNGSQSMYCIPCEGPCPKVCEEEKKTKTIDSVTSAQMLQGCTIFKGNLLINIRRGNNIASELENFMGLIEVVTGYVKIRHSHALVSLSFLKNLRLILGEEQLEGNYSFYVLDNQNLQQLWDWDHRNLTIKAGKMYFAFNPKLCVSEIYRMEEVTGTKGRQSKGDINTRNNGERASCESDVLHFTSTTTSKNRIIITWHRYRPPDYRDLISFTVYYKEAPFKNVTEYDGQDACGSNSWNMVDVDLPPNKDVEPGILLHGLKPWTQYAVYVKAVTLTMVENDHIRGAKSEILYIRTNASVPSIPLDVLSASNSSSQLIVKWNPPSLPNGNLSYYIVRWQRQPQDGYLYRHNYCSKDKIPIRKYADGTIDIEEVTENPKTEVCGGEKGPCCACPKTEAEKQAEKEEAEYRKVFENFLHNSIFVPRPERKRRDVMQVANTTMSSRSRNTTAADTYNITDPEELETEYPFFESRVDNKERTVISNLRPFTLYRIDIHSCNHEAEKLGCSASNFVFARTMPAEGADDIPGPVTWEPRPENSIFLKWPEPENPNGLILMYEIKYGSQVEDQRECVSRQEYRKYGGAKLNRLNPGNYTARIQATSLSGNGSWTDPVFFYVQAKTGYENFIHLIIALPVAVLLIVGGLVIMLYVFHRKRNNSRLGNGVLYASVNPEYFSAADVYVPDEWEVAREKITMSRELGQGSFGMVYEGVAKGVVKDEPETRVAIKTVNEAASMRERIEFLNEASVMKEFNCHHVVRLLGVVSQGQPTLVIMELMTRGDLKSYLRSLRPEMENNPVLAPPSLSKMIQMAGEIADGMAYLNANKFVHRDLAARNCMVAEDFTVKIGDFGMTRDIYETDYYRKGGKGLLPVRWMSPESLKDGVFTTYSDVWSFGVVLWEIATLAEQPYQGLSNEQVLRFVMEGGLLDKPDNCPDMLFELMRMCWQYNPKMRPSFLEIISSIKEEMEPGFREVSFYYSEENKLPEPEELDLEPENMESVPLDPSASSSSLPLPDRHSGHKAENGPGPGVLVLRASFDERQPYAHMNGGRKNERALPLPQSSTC
- Assay summary: Example B-2: IGF-1R Assay (PathHunter cell lines, EC80 agonist challenge, chemiluminescent detection)
- Format: cell-based
- Run parameters: PathHunter cells, compound 60 minutes at 37° C., EC80 agonist 3 hours; read-out: IC50, Biological Activity against IGF-1R (Table B2)
Measured IC50, listed per entry for reference.

Smiles text | Target or system | IC50
CC(C)Nc1cc(CN2C(=O)N(c3ccc4c(C(F)(F)F)nn(C)c4c3)C(=O)C2(C)C)ccn1 | IGF-1R (Homo sapiens, UniProt P08069) | 2000 to 10000 nM
CC1(C)C(=O)N(c2ccc3c(c2)N(S(C)(=O)=O)CC32CC2)C(=O)N1Cc1ccnc(N[C@H]2[C@@H]3COC[C@@H]32)c1 | IGF-1R (Homo sapiens, UniProt P08069) | ≤ 500 nM
CC(C)Nc1cc(CN2C(=O)N(c3cnc4c(c3)OCC4(C)C)C(=O)C2(C)C)ccn1 | IGF-1R (Homo sapiens, UniProt P08069) | 2000 to 10000 nM
CC1(C)COc2cc(N3C(=O)N(Cc4ccnc5c4CC(=O)N5)C(C)(C)C3=O)ccc21 | IGF-1R (Homo sapiens, UniProt P08069) | ≤ 500 nM

---

- Target or system: IGF-1R (Homo sapiens)
- Construct: expressed in transfected cells
- Assay summary: Example B-2: IGF-1R Assay (PathHunter cell lines, EC80 agonist challenge, chemiluminescent detection)
- Assay type: cell-based
- Run parameters: PathHunter cells, compound 60 minutes at 37° C., EC80 agonist 3 hours; read-out: IC50, Biological Activity against IGF-1R (Table B2)
pIC50: −log10 of the molar value.
Assay endpoint: pIC50

Compound | Target or system | Result
CC(C)Nc1cc(CN2C(=O)N(c3ccc(C(C)(C)C)cn3)C(=O)C2(C)C)ccn1 [Compound 277] | IGF-1R (Homo sapiens) | ≥ 6.30
CC1(C)C(=O)N(c2ccc(S(=O)(=O)C(F)(F)F)cc2)C(=O)N1Cc1ccnc(N[C@H]2C[C@H]2F)c1 [Compound 357] | IGF-1R (Homo sapiens) | ≥ 6.30
[2H]C([2H])([2H])Nc1cc(CN2C(=O)N(c3ccc4c(c3)N(S(C)(=O)=O)CC4(C)C)C(=O)C2(C)C)ccn1 [Compound 247] | IGF-1R (Homo sapiens) | ≥ 6.30
CC(C)Nc1cc(CN2C(=O)N(c3ccc(C4(C#N)CC(F)(F)C4)cc3)C(=O)C2(C)C)ccn1 [Compound 123] | IGF-1R (Homo sapiens) | 5.70 to 6.30

---

- Target or system: IGF-1R (Homo sapiens)
- Construct: expressed in transfected cells
- Assay summary: Example B-2: IGF-1R Assay (PathHunter cell lines, EC80 agonist challenge, chemiluminescent detection)
- Format: cell-based
- Run parameters: PathHunter cells, compound 60 minutes at 37° C., EC80 agonist 3 hours; read-out: IC50, Biological Activity against IGF-1R (Table B2)
- Protocol: PathHunter cell lines were expanded from freezer stocks according to standard procedures. Cells were seeded in a total volume of 20 μL into white walled, 384-well microplates and incubated for the appropriate time prior to testing. Cells are pre-incubated with compound followed by EC80 agonist challenge as follows: • R. 1. […] Compound activity was analyzed using CBIS data analysis suite (ChemInnovation, CA). […]
Measured IC50, listed per entry for reference.
Assay endpoint: IC50

Molecule | Result
CC1(c2ccc(N3C(=O)N(Cc4ccnc5c4CC(=O)N5)C(C)(C)C3=O)cc2)CC1 | ≤ 500 nM
CC(C)Nc1cc(CN2C(=O)N(c3ccc(SC(F)(F)F)nc3)C(=O)C2(C)C)ccn1 | 500 to 2000 nM
CC1(C)C(=O)N(c2ccc(C3(C(F)(F)F)CC3)cc2)C(=O)N1Cc1ccnc(NC2CC2)c1 | ≤ 500 nM
COC(C)(C)CNc1cc(CN2C(=O)N(c3ccc4c(c3)N(S(C)(=O)=O)CC43CCC3)C(=O)C2(C)C)ccn1 | 500 to 2000 nM
CC1(C)C(=O)N(c2ccc(SC(F)(F)F)cc2)C(=O)N1Cc1ccnc(NC2CCOCC2)c1 | ≤ 500 nM
CC1(C)C(=O)N(c2ccc3c(c2)N(C(=O)C2CC2)CC32CC2)C(=O)N1Cc1ccnc2c1CC(=O)N2 | ≤ 500 nM
CC1(C)Cc2c(CN3C(=O)N(c4ccc(SC(F)(F)F)cc4)C(=O)C3(C)C)ccnc2N1 | ≤ 500 nM
C[C@H](CC#N)Nc1cc(CN2C(=O)N(c3ccc(S(=O)(=O)C(F)(F)F)cc3)C(=O)C2(C)C)ccn1 | 500 to 2000 nM
CC1(C)C(=O)N(c2ccc3c(c2)N(S(C)(=O)=O)CC32CC2(C)C)C(=O)N1Cc1ccnc(N[C@H]2[C@@H]3COC[C@@H]32)c1 (some centres unmarked) | ≤ 500 nM
CC1(C)CN(S(C)(=O)=O)c2cc(N3C(=O)N(Cc4ccnc(NC5CCOCC5)c4)C(C)(C)C3=O)ccc21 | ≤ 500 nM
C[C@H](Nc1cc(CN2C(=O)N(c3ccc4c(c3)N(S(C)(=O)=O)CC43CCC3)C(=O)C2(C)C)ccn1)c1cccnc1 | ≤ 500 nM
CC(C)Nc1cc(CN2C(=O)N(c3ccc4c(c3)N(C)C(=O)C43CC3)C(=O)C2(C)C)ccn1 | 2000 to 10000 nM
CC1(C)C(=O)N(c2ccc3c(c2)N(S(C)(=O)=O)CC32CCC2)C(=O)N1Cc1ccnc(NCC2CCOC2)c1 (centres unmarked) | ≤ 500 nM
Cn1nc(C(C)(C)C)cc1N1C(=O)N(Cc2ccnc(N[C@H]3CCOC3)c2)C(C)(C)C1=O | > 10000 nM
